assay: Kinetic solubility of the compound in FaSSIF at pH 6.5 after 20 hrs by shake flask method; type: physicochemical; settings: read-out: Kinetic_solubility
Reported solubility kinetic at 20 h values are given for each entry in this list.
Hi! Could you send only the number? It should be in µM, unit omitted.

{"smiles-record": "FC(F)(F)c1cccc(-c2nc3cnc(Nc4ccc(N5CCOCC5)cn4)cc3[nH]2)c1", "solubility kinetic at 20 h / µM": 35}

Ask: Any idea what its solubility kinetic at 20 h is? The molecule is CCOC(=O)c1ccc(Nc2cc3[nH]c(-c4ccc(C(F)(F)F)nc4)nc3cn2)nc1
Reply: 127

Ask: Try O=C(O)c1ccc(Nc2cc3[nH]c(-c4cccc(C(F)(F)F)c4)nc3cn2)nc1 next.
Reply: 6

Ask: And the next one, FC(F)(F)c1ccc(Nc2cc3[nH]c(CC4CC4)nc3cn2)nc1 ?
Reply: 156

Ask: // query: FC(F)(F)c1ccc(Nc2cc3[nH]c(C4CC4)nc3cn2)nc1
Reply: 123

---

experiment: Cmax in BALB/c mouse at 5 mg/kg, iv administered as 2 mins of infusion by LC-MS/MS method; type: ADME, organism-based; parameters: dose 5 mg/kg, route intravenous; details: in vivo
readout: Cmax (µM)
Report the value in µM with no unit label.

Ask: Entry FC1(F)CCC(c2nc3cnc(Nc4ccc(C(F)(F)F)cn4)cc3[nH]2)CC1 has what Cmax?
Reply: 5.1

---

test: Cmax in BALB/c mouse at 20 mg/kg administered via oral gavage as bolus dose by LC-MS/MS method; type: ADME, organism-based; parameters: dose 20 mg/kg, route oral; conditions: in vivo
readout: Cmax

Ask: GET /values?readout=Cmax&item= FC1(F)CCC(c2nc3cnc(Nc4ccc(C(F)(F)F)cn4)cc3[nH]2)CC1
Reply: 9.6 µM

---

experiment: Kinetic solubility of the compound in FaSSIF at pH 6.5 after 20 hrs by shake flask method; type: physicochemical; details: read-out: Kinetic_solubility
readout: solubility kinetic at 20 h (µM)
Answer with a number only, understood to be in µM.

{"molecule": "CC1(c2nc3cnc(Nc4ccc(C(F)(F)F)cn4)cc3[nH]2)CC1", "solubility kinetic at 20 h [µM]": 179}
{"molecule": "O=C(O)c1ccc(Nc2cc3[nH]c(-c4ccc(F)c(F)c4)nc3cn2)nc1", "solubility kinetic at 20 h [µM]": 9}
{"molecule": "FC(F)(F)c1ccc(Nc2cc3[nH]c(C4CCOCC4)nc3cn2)nc1", "solubility kinetic at 20 h [µM]": 168}

Ask: I have this molecule here, O=C(O)c1ccnc(Nc2cc3[nH]c(-c4cccc(C(F)(F)F)c4)nc3cn2)c1 , and I need its recorded solubility kinetic at 20 h.
Reply: 60

Ask: Please answer likewise for Fc1ccc(Nc2cc3[nH]c(C4CCC(F)(F)CC4)nc3cn2)nc1
Reply: 170

Ask: Next: COC(=O)c1ccc(Nc2cc3[nH]c(-c4ccc(C(F)(F)F)nc4)nc3cn2)nc1
Reply: 16

---

Each item that follows carries a reported AUC(0-t) at 23 h.
assay: AUC (0 to 23 hrs) in NOD-scid IL-2Rgamma-null mouse model engrafted with Plasmodium falciparum 3D7 infected human erythrocytes at 5 mg/kg administered via oral gavage by LC-MS/MS method; format: ADME, organism-based; set-up: dose 5 mg/kg, time < 23 hr, route oral; details: in vivo
Please respond with the number in ng·h/mL and leave the unit unwritten.

{"smiles-record": "FC1(F)CCC(c2nc3cnc(Nc4ccc(C(F)(F)F)cn4)cc3[nH]2)CC1", "assay-result": 4380}

Pending compound:
Ask: For the compound shown here, Fc1ccc(Nc2cc3[nH]c(-c4ccc(F)c(C(F)(F)F)c4)nc3cn2)nc1 , give the reported AUC(0-t) at 23 h.
Reply: 6510

---

assay: Kinetic solubility of the compound in HCl at pH 2 after 20 hrs by shake flask method; format: physicochemical; settings: read-out: Kinetic_solubility
readout: solubility kinetic at 20 h

Here are 2 molecules together with their reported answers.
{"smiles-record": "FC(F)(F)c1cccc(-c2nc3cnc(Nc4ccc(-c5nnn[nH]5)cn4)cc3[nH]2)c1", "readout": "solubility kinetic at 20 h", "assay-result": "< 5 µM"}
{"smiles-record": "Fc1ccc(-c2nc3cnc(Nc4cc(C(F)(F)F)ccn4)cc3[nH]2)cc1F", "readout": "solubility kinetic at 20 h", "assay-result": "< 5 µM"}

# ---- query molecule ----
Ask: Can you look up the measured solubility kinetic at 20 h of O=C(O)c1ccnc(Nc2cc3[nH]c(-c4cccc(C(F)(F)F)c4)nc3cn2)c1 for me?
Reply: < 5 µM

---

# solubility kinetic at 20 h annotations
test: Kinetic solubility of the compound in FaSSIF at pH 6.5 after 20 hrs by shake flask method; type: physicochemical; details: read-out: Kinetic_solubility

{"smiles-record": "O=C(O)c1ccc(Nc2cc3[nH]c(-c4ccc(C(F)(F)F)nc4)nc3cn2)nc1", "assay-result": "< 5 µM"}

Ask: Quick one: solubility kinetic at 20 h for FC(F)(F)c1cccc(-c2nc3cnc(Nc4ccc(-c5nnn[nH]5)cn4)cc3[nH]2)c1 ?
Reply: < 5 µM

Ask: Please do the same for CNC(=O)c1ccc(Nc2cc3[nH]c(-c4ccc(C(F)(F)F)nc4)nc3cn2)nc1 as well.
Reply: < 5 µM

Ask: Request: Fc1ccc(Nc2cc3[nH]c(-c4ccc(F)c(C(F)(F)F)c4)nc3cn2)nc1
Reply: 50 to 100 µM

Ask: Could you do the same for N#Cc1ccc(Nc2cc3[nH]c(-c4cccc(C(F)(F)F)c4)nc3cn2)nc1 , please?
Reply: 50 to 100 µM

Ask: Okay, and Fc1ccc(Nc2cc3[nH]c(-c4cccc(C(F)(F)F)c4)nc3cn2)nc1 ?
Reply: 50 to 100 µM

---

In this section, each of the compounds is paired with its reported solubility kinetic at 20 h.
assay: Kinetic solubility of the compound in phosphate buffered saline at pH 6.5 after 20 hrs by shake flask method; assay type: physicochemical; settings: read-out: Kinetic_solubility

Worked set:
{"smiles-record": "COc1cccnc1Nc1cc2[nH]c(-c3cccc(C(F)(F)F)c3)nc2cn1", "solubility kinetic at 20 h": "< 5 µM"}
{"smiles-record": "Fc1ccnc(Nc2cc3[nH]c(-c4ccc(F)c(F)c4)nc3cn2)c1", "solubility kinetic at 20 h": "< 5 µM"}

Ask: Tell me the measured solubility kinetic at 20 h of FC(F)(F)c1cccc(-c2nc3cnc(Nc4ncccn4)cc3[nH]2)c1 , please.
Reply: < 5 µM

Ask: Ok, now Fc1ccc(Nc2cc3[nH]c(-c4cccc(C(F)(F)F)c4)nc3cn2)nc1
Reply: < 5 µM

Ask: What about COc1cccc(Nc2cc3[nH]c(-c4cccc(C(F)(F)F)c4)nc3cn2)n1 ?
Reply: < 5 µM

Ask: Next: O=C(c1ccc(Nc2cc3[nH]c(-c4ccc(C(F)(F)F)nc4)nc3cn2)nc1)N1CCCC1
Reply: < 5 µM

Ask: Next up: N#Cc1ccc(Nc2cc3[nH]c(-c4cccc(C(F)(F)F)c4)nc3cn2)nc1
Reply: < 5 µM

Ask: Now the compound FC(F)(F)c1cccc(-c2nc3cnc(Nc4cccnn4)cc3[nH]2)c1
Reply: < 5 µM

---

experiment: Kinetic solubility of the compound in HCl at pH 2 after 20 hrs by shake flask method; type: physicochemical; conditions: read-out: Kinetic_solubility
Listing of recorded solubility kinetic at 20 h by entry.
The reply should contain only the number, in µM.

Some molecules with known solubility kinetic at 20 h results, for comparison:
{"molecule": "Fc1ccc(-c2nc3cnc(Nc4ccc(C(F)(F)F)cn4)cc3[nH]2)cc1F", "assay-result": 6}
{"molecule": "FC(F)(F)c1ccc(Nc2cc3[nH]c(C4CCOC4)nc3cn2)nc1 (stereo not given)", "assay-result": 200}
{"molecule": "O=C(c1ccc(Nc2cc3[nH]c(-c4ccc(C(F)(F)F)nc4)nc3cn2)nc1)N1CCOCC1", "assay-result": 200}

Ask: Could you tell me which solubility kinetic at 20 h is on file for FC(F)(F)c1cccc(-c2nc3cnc(Nc4ccccn4)cc3[nH]2)c1 ?
Reply: 21

Ask: Next molecule up: Fc1ccc(Nc2cc3[nH]c(-c4ccc(F)c(F)c4)nc3cn2)nc1
Reply: 42

---

experiment: Kinetic solubility of the compound in FaSSIF at pH 6.5 after 20 hrs by shake flask method; assay type: physicochemical; settings: read-out: Kinetic_solubility
readout: solubility kinetic at 20 h

These solved cases illustrate the format of a correct answer.
{"smiles-record": "FC(F)(F)c1cccc(-c2nc3cnc(Nc4cc(-c5nnn[nH]5)ccn4)cc3[nH]2)c1", "solubility kinetic at 20 h": "< 5 µM"}
{"smiles-record": "Fc1ccc(-c2nc3cnc(Nc4cc(C(F)(F)F)ccn4)cc3[nH]2)cc1F", "solubility kinetic at 20 h": "50 to 100 µM"}
{"smiles-record": "CN1CCN(c2ccc(Nc3cc4[nH]c(-c5cccc(C(F)(F)F)c5)nc4cn3)nc2)CC1", "solubility kinetic at 20 h": "< 5 µM"}
{"smiles-record": "Fc1cnc(Nc2cc3[nH]c(-c4cccc(C(F)(F)F)c4)nc3cn2)c(F)c1", "solubility kinetic at 20 h": "50 to 100 µM"}

Ask: Value lookup for solubility kinetic at 20 h; key = FC(F)(F)c1ccc(Nc2cc3[nH]c(-c4cccc(C(F)(F)F)c4)nc3cn2)nc1
Reply: 50 to 100 µM

Ask: Do the same for Fc1ccc(Nc2cc3[nH]c(-c4ccc(F)c(F)c4)nc3cn2)nc1 please
Reply: 50 to 100 µM

Origin of values: ChEMBL document CHEMBL4184318
